Tested on: Plasmodium falciparum
protocol_summary: Screen against P. falciparum Asexual Blood Stage (ABS), at 5uM
Type: functional, Dd2
assay_context: tested at 5 uM
The campaign covered roughly 65,000 compounds. About 2,100 (3.2%) showed an effect of 50% or more. The median lay at about -52%. The sample holds strong results, similar compounds and a random draw of the others, so the mix is not that of the screen.
Rule for this label: MET means INHIBITION is less than -20%; NOT MET means INHIBITION is at least -20%.

Cc1cc(C(=O)N2CCCC(n3cncn3)C2)on1 (stereo unspecified) = MET
O=C(c1cc(C2CC2)on1)N1CCCC(n2cncn2)C1 (stereo unspecified) = MET
O=C(CCn1cccn1)NCCOc1ncc(Cl)cc1Cl = NOT MET
Cc1cc(C(=O)N2CCCC(n3cncn3)C2)no1 (stereo unspecified) = NOT MET
CCc1cnc(N2CCc3cc(C(=O)NC)c(N(C)C)nc3CC2)nc1 = NOT MET
CC(C)c1[nH]c2ncccc2c1CN1CCC(O)CC1 = MET
COc1nccnc1N1CCC(C(=O)O)(n2ccc(C(C)(C)C)n2)CC1 = NOT MET
Cc1nc(C2CN(Cc3scnc3C)CCO2)cc(N(C)C)n1 (stereo unspecified) = MET
CN1C[C@H](c2ccccc2)[C@H]2CN(C(=O)Cc3ccc(O)cc3)CC[C@H]21 = NOT MET

Regarding Cc1ccsc1[C@@H]1CCN(C(=O)Cc2ccc(O)cc2)C[C@H]1O , kindly confirm whether its INHIBITION is beneath -20%.
NOT MET

---

Please provide measured INHIBITION for the entries that follow.
Tested on: Plasmodium falciparum
protocol_summary: Screen against P. falciparum Asexual Blood Stage (ABS), at 5uM
Format: functional, Dd2
assay_context: tested at 5 uM
The whole screen tested about 65,000 compounds, of which about 2,100 (3.2%) showed an effect of 50% or more. The median lay at about -52%. The sample holds strong results, similar compounds and a random draw of the others, so the mix is not that of the screen.
One number for each entry, in %.

Record excerpt, results attached:
CCC(NC(N)=O)c1ccccc1OCC(=O)N1CCCC1 (stereo unspecified) = -37.9
CCc1n[nH]c(C(=O)N2CCN(c3ccc4ccccc4c3)CC2)c1C = -8.02
CCC(NC(=O)CN(C)Cc1ccc(C)o1)c1ccc(C)cc1 (stereo unspecified) = 50.9
O=C([C@@H]1Cc2[nH]cnc2CN1C(=O)NC1CCCCC1)N1CCCC1 = -56.1
O=C(NCC1CC1)Nc1ccc(OCC(F)(F)F)nc1 = 52.7

Consider the following items and state reported INHIBITION for each.
1. Cc1cc(C)c2cc(CNCc3ccccc3)c3nn(C)c(=O)n3c2c1
2. COc1cccc(CNC(Cc2cccs2)c2nc(C)c(C)s2)c1OC (stereo unspecified)
3. Cc1cc(C)c2cc(CNCc3ccc(C)o3)c3nn(C)c(=O)n3c2c1
4. CCC(NC(=O)CN(C)Cc1ccc(C)o1)c1ccc(Br)cc1 (stereo unspecified)
5. COCc1ccc(C(=O)N2CCC(c3cc4nccnc4[nH]3)CC2)cc1
6. CCNC(=O)C1CCN(Cc2ccc(C(=O)Nc3nnc(C)s3)cc2)C1 (stereo unspecified)

65.4
-80.8
63.9
37.3
-69.8
-162.2

---

For each entry below, report its INHIBITION value.
Tested on: Plasmodium falciparum
protocol_summary: Screen against P. falciparum Asexual Blood Stage (ABS), at 5uM
Assay type: functional, Dd2
assay_context: tested at 5 uM
About 2,100 (3.2%) of roughly 65,000 compounds showed an effect of 50% or more. The median lay at about -52%. The sample holds strong results, similar compounds and a random draw of the others, so the mix is not that of the screen.
Answers are plain numbers, in %.

Could you tell me INHIBITION for each of these compounds? They are listed below.
1. Cc1noc(C)c1CN1CC[C@H]2OCC[C@@H](C(=O)NCC3CC3)[C@H]2C1
2. Cn1cccc1C(=O)N1CCC2(CCN2c2ncccn2)C1 (stereo not drawn)
3. Cc1cccc(CNc2cc(C3CCCNC3)ccn2)n1 (stereo not drawn)
4. CC(C)CNC(=O)c1nc(COc2ccc3c(c2)OCO3)no1
5. NC(=O)CN1CCCC(c2nccnc2Oc2cccc(F)c2)C1 (stereo not drawn)
6. COc1cc2c(c(OC)c1OC)CCN(CCn1cncn1)CC2

[-48.5, -28.5, -46.7, -58.7, -47.7, -167]

Provide the reported INHIBITION of each entry below, same order.
1. C=C/C=c1\c(=C/C)oc2c(NCc3ccccc3)nc(C)nc12
2. CC(C)(O)CCc1cccc(C(=O)NCc2cnn3cccnc23)c1
3. O=S(=O)(c1ccccc1)N1CCC2(CCCN2Cc2ccccc2Cl)C1 (stereo not drawn)
4. O=C(NCc1cnn2cccnc12)c1cccc(CC2CCNCC2)c1

1. 3.94
2. -126
3. -129
4. 66.1

Batch: INHIBITION for all items listed.
1. CCN(C)C1COC2(CCN(C(=O)c3ccc(Cl)cc3)CC2)C1 (stereo not drawn)
2. Cc1cnn(C2CN(CC(=O)NCCCc3ccccc3)C2)c1
3. Cc1cc(C2CCCN(C(=O)COc3cccc(F)c3)C2)n[nH]1 (stereo not drawn)
4. Fc1cccc(-c2nnn3c2COC(CNCc2ccsc2)C3)c1 (stereo not drawn)
5. CS(=O)(=O)Nc1ccn(Cc2ccc(Cl)cc2)n1
6. CC(=O)NCC(=O)N1Cc2nccn2CC(COc2cccnc2)C1 (stereo not drawn)
7. COCCc1noc(C2CCCN(c3ncnc4c3CCC4)C2)n1 (stereo not drawn)
8. O=C1NC(c2ccccc2)=N[C@@]12CC[C@@H]1CN(Cc3ccncc3)C[C@@H]12

[2.64, -108, -49.4, -82.8, -58.2, -98.1, -100, 15.3]

State recorded INHIBITION for all listed compounds.
1. O=C1NC(c2ccccc2)=N[C@@]12CC[C@@H]1CN(Cc3ccccc3)C[C@@H]12
2. COc1cccc(-c2ncc(CN3C[C@H]4CC[C@@H](C3)N(C)C4=O)s2)c1
3. CC(=O)N1CCO[C@@H]2CN(S(=O)(=O)C3CC3)C[C@@H]2C1
4. CC(C)Cn1cncc1CNC(=O)c1cccc(CC2CCNCC2)c1

42.6
-211
-114
-83.2

INHIBITION value, target or system Plasmodium falciparum, for CC(C)c1cc(NC(=O)CNC2CCc3ncnn3C2)on1 (stereo not drawn) : -54
